- Test system: MCF-7 cells from a breast cancer of human origin
- Assay remarks: Cytotoxicity on MCF-7 cells (MTT viability test)
- Format: cell-based
- Measurement conditions: MCF7, 0.195 μM, 48 h
# mortality at 0.195 µM values compiled below
Respond with the bare value in %.

1. CC1(C)N[Se]c2c([N+](=O)[O-])cccc21 [Bxt-51062, 3,3-Dimethyl-7-nitrobenzisoselenazoline] ... 2.22
2. CC(=O)N1[Se]c2c([N+](=O)[O-])cccc2C1(C)C [Bxt-57004] ... 17.4
3. CC/C(=C(\c1ccccc1)c1ccc(OCCN2[Se]c3c([N+](=O)[O-])cccc3C2(C)C)cc1)c1ccccc1 [Bxt-57007] ... 1.07

Challenge: # value lookup — system MCF-7 cells from a breast cancer of human origin, readout mortality at 0.195 µM, item CC1(C)c2cccc([N+](=O)[O-])c2[Se]N1CCO [Bxt-57001]
Response given: 0

These measurements were taken from patent US6407083B1.
